Data origin, for the record: patent US20240261414A1

Target: recombinant human FAAH (rhFAAH) (Homo sapiens, UniProt O00519)
Construct: purchased Cayman Chemical (Ann Arbor, MI, USA)
Sequence (O00519 1-579): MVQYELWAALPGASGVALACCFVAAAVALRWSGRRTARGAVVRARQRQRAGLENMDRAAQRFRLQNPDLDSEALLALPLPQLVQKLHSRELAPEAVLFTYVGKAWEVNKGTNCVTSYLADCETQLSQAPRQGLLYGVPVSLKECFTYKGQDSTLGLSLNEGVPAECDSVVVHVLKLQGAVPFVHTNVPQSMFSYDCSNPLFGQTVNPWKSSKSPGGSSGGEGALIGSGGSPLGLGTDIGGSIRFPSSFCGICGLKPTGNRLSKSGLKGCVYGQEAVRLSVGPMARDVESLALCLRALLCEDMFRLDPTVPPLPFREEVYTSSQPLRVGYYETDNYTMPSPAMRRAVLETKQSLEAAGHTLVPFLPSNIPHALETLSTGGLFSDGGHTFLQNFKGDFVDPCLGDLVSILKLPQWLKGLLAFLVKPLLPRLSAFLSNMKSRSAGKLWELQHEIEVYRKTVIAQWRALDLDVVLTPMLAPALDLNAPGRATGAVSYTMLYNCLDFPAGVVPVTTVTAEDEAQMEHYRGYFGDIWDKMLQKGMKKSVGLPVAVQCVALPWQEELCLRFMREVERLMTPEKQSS
Assay: FAAH substrate evaluation (acid metabolite formation)
Type: biochemical
Conditions: 0.5 ng/L rhFAAH, 1 μM test compound, Tris-EDTA buffer pH 8.0, room temperature, 0-60 minutes
Property Label: ke (observed rate constant for the acid metabolite formation)

>>> value("Cc1noc(-c2ccc(CSCCC(=O)NC3CC3)cc2)c1NC(=O)OC(C)c1ccccc1Cl (stereo not drawn)")
"D (ke is 0)"
>>> value("Cc1noc(-c2ccc(NC(=O)CCC(=O)NC3CC3)cc2F)c1NC(=O)O[C@H](C)c1ccccc1Cl")
"D (ke is 0)"
>>> value("CCCCC[C@H](O)CC[C@@H]1[C@H]2Cc3cccc(OCC(=O)NC)c3C[C@H]2C[C@H]1O")
"D (ke is 0)"

----------
target: recombinant human FAAH (rhFAAH) (Homo sapiens, UniProt O00519); construct: purchased Cayman Chemical (Ann Arbor, MI, USA); assay: FAAH substrate evaluation (acid metabolite formation); assay type: biochemical; conditions: 0.5 ng/L rhFAAH, 1 μM test compound, Tris-EDTA buffer pH 8.0, room temperature, 0-60 minutes
Property Label: ke (observed rate constant for the acid metabolite formation)

>>> value("O=C(C[C@H]1CCc2c1[nH]c1ccc(OCc3ccc(C4CCCC4)c(C(F)(F)F)c3)cc21)Nc1ccncc1")
"D (ke is 0)"
>>> value("CNC(=O)C[C@H]1CCc2c1[nH]c1ccc(OCc3ccc(C4CCCC4)c(C(F)(F)F)c3)cc21")
"D (ke is 0)"

----------
biological target: recombinant human FAAH (rhFAAH) (Homo sapiens, UniProt O00519); construct: purchased Cayman Chemical (Ann Arbor, MI, USA); experiment: FAAH substrate evaluation (acid metabolite formation); format: biochemical; details: 0.5 ng/L rhFAAH, 1 μM test compound, Tris-EDTA buffer pH 8.0, room temperature, 0-60 minutes
Property Label: ke (observed rate constant for the acid metabolite formation)

>>> value("CCc1cc(/C(C)=N/OCc2ccc(C3CCCCC3)c(C(F)(F)F)c2)ccc1CN1CC(C(N)=O)C1")
"D (ke is 0)"
>>> value("Cc1noc(NC(=O)CCSCc2ccc(-c3onc(C)c3NC(=O)OC(C)c3ccccc3Cl)cc2)c1C (stereo not shown)")
"D (ke is 0)"
>>> value("O=C(NC1CC1)c1ccc2nc(-c3cc(Cl)cc(Cl)c3)oc2c1")
"D (ke is 0)"
